# TARGET ENTITY: recombinant RSV complex (Human respiratory syncytial virus A, UniProt P28887)
# Sequence (P28887 whole entry): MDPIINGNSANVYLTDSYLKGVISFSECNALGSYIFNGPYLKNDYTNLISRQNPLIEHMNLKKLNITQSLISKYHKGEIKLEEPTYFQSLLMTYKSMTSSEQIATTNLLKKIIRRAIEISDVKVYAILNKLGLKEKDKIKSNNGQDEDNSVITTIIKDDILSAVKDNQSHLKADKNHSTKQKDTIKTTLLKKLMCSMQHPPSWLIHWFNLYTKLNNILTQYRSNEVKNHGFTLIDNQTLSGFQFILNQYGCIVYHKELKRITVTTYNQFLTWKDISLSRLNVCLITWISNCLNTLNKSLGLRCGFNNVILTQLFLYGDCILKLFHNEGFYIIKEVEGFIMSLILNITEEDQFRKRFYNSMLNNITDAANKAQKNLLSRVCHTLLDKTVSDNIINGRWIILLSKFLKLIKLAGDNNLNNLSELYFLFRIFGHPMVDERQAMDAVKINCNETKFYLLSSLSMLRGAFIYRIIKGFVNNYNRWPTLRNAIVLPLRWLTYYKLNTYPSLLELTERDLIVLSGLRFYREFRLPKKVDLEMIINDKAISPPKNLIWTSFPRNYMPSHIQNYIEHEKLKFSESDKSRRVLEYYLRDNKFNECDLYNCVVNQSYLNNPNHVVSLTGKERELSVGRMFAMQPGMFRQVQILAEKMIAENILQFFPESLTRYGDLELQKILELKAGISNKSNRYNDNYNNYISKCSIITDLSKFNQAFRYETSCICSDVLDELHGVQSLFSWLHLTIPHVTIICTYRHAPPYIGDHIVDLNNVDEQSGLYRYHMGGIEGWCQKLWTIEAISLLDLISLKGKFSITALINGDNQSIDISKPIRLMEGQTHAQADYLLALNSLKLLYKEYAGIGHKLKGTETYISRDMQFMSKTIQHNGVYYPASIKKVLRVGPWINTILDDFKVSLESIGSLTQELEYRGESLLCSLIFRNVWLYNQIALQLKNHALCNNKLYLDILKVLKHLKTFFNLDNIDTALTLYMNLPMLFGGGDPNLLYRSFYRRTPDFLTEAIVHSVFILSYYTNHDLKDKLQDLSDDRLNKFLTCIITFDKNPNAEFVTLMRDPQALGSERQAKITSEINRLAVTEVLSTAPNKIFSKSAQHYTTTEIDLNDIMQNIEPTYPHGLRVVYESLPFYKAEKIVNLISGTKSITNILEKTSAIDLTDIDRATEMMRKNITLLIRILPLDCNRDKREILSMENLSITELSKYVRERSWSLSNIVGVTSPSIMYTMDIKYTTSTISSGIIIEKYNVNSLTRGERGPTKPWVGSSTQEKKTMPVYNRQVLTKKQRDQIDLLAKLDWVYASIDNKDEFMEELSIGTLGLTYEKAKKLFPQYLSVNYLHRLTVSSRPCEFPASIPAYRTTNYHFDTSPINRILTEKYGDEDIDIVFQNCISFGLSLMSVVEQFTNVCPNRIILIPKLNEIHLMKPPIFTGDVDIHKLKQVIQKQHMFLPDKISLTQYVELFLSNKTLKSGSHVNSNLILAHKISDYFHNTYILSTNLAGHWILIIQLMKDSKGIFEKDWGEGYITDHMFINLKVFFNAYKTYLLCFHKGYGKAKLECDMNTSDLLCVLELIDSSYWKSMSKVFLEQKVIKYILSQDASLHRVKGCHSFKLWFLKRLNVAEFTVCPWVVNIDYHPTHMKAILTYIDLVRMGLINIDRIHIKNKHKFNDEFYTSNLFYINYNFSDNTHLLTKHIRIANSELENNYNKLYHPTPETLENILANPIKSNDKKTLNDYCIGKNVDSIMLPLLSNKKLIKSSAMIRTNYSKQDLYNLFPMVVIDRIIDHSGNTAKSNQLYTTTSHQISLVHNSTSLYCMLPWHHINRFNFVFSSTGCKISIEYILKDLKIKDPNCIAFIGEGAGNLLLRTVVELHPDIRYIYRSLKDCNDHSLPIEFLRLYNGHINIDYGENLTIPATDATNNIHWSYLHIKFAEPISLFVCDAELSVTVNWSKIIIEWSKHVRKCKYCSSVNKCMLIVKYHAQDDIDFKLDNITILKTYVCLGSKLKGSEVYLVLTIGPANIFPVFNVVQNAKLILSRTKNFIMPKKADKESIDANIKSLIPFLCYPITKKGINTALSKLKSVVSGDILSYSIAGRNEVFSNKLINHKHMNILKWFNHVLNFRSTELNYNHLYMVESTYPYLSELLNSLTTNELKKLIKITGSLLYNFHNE
# Sequence (P03421 whole entry, further chain): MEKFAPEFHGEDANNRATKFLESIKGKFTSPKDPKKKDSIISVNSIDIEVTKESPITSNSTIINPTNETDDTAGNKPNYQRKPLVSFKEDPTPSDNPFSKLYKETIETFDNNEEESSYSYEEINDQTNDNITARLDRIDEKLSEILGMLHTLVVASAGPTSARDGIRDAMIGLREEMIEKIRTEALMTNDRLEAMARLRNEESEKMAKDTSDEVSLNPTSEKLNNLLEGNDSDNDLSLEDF
# ASSAY PROCEDURE: RSV polymerase inhibition assay
# Assay type: biochemical
# PARTICULARS: 10 nM recombinant RSV complex, 2 h at 30° C.; Table E = <1 μM, Table F = <50 μM; read-out: IC50
RESULT TYPE: IC50

Examples with their reported IC50 follow.
[
  {
    "COMPOUND": "COc1nc(C(=O)NCC(O)(c2cc3c(c(-c4ccc(F)cc4)n2)OCC3(C)N)C(F)(F)F)cc2oc(=O)[nH]c12 (stereo not shown)",
    "RESULT TYPE": "IC50",
    "RESULT": "< 50 µM"
  },
  {
    "COMPOUND": "COc1cc(C(=O)NCC(O)(c2cc3c(c(-c4ccncc4)n2)OCC3(C)N)C(F)(F)F)ccc1OCCO (stereo not shown)",
    "RESULT TYPE": "IC50",
    "RESULT": "< 50 µM"
  }
]

Given C[C@@]1(N)COc2c1cc(C(O)(CNC(=O)c1ccc3[nH]ccc3c1)C(F)(F)F)nc2-c1ccc(F)cc1 (stereo partly shown) , state its recorded IC50.
< 1 µM

Given COc1cc(C(=O)NC[C@@](O)(c2cc3c(c(-c4ccc(F)cc4)n2)OC[C@@]3(C)N)C(F)(F)F)ccc1-c1nc(C)no1 , state its recorded IC50.
< 1 µM
